# ASSAY_METHOD_TEXT: Lipophilicity of the compound at 1 mg/ml by RT-TLC analysis relative to 0% methanol
# Assay type: physicochemical
# CONDITION_LABEL: methanol/water
REPORTED_METRIC: Rm

CC(C)C(CO)NC(=O)/C=C/c1ccccc1 (racemic): 2.219
CCC(COC(C)=O)NC(=O)/C=C/c1ccccc1 (stereo not drawn): 2.118
O=C(/C=C/c1ccccc1)N1CCC(O)CC1: 2.579

====

# ASSAY_METHOD_TEXT: Lipophilicity of the compound using 95% methanol in water at 1 mg/ml by RT-TLC analysis
# Assay type: physicochemical
# CONDITION_LABEL: buffer
REPORTED_METRIC: Rm

CCC(COC(C)=O)NC(=O)/C=C/c1ccccc1 (configuration not stated): -0.58
O=C(/C=C/c1ccccc1)N[C@H]1CCCC[C@@H]1O (racemic): -0.52
CCC(O)CNC(=O)/C=C/c1ccccc1 (racemic): -0.66
CC(O)CNC(=O)/C=C/c1ccccc1 (racemic): -0.69
CC(=O)CNC(=O)/C=C/c1ccccc1: -0.63
O=C(/C=C/c1ccccc1)NCCCCCO: -0.69
CC(CO)NC(=O)/C=C/c1ccccc1 (racemic): -0.69
COC(=O)C(NC(=O)/C=C/c1ccccc1)C(C)C (racemic): -0.52
CC(NC(=O)/C=C/c1ccccc1)C(=O)NCN1CCCCC1 (racemic): -0.39
CC(=O)OC(C)CNC(=O)/C=C/c1ccccc1 (racemic): -0.58
CC(C)(CO)NC(=O)/C=C/c1ccccc1: -0.63
CC(C)C(CO)NC(=O)/C=C/c1ccccc1 (racemic): -0.63

====

# Tested on: Salmonella typhimurium
# ASSAY_METHOD_TEXT: Mutagenicity in Salmonella typhimurium TA98 assessed as number of revertants at 500 ug/plate by Ames test (reference value: 23 +/- 3)
# Format: toxicity, organism-based
# CONDITION_LABEL: salmonella enterica subsp. enterica serovar typhimurium
REPORTED_METRIC: Activity

O=C(/C=C/c1ccccc1)N1CCC(O)CC1: 22
O=C(/C=C/c1ccccc1)N[C@H]1CCCC[C@@H]1O (racemic): 19
CCC(O)CNC(=O)/C=C/c1ccccc1 (racemic): 17
CC(CO)NC(=O)/C=C/c1ccccc1 (racemic): 24
CCC(CO)NC(=O)/C=C/c1ccccc1 (racemic): 21
CC(O)CNC(=O)/C=C/c1ccccc1 (racemic): 21
CC(C)C(CO)NC(=O)/C=C/c1ccccc1 (racemic): 16

====

# Test system: Salmonella typhimurium
# ASSAY_METHOD_TEXT: Mutagenicity in Salmonella typhimurium TA100 assessed as number of revertants at 4 ug/plate by Ames test (reference value: 77 +/-4)
# Type: toxicity, organism-based
# CONDITION_LABEL: salmonella enterica subsp. enterica serovar typhimurium
Listed next: entries and their corresponding Activity.
REPORTED_METRIC: Activity

CC(CO)NC(=O)/C=C/c1ccccc1 (racemic): 67
CC(O)CNC(=O)/C=C/c1ccccc1 (racemic): 68
CC(C)C(CO)NC(=O)/C=C/c1ccccc1 (racemic): 83
CCC(O)CNC(=O)/C=C/c1ccccc1 (racemic): 60
CCC(CO)NC(=O)/C=C/c1ccccc1 (racemic): 68
O=C(/C=C/c1ccccc1)N1CCC(O)CC1: 70
O=C(/C=C/c1ccccc1)N[C@H]1CCCC[C@@H]1O (racemic): 71
